Origin of the recorded values: patent US10947242B2

Molecular target: Human recombinant PDE2A (hPDE2A) (Homo sapiens)
Construct: His tag (inferred from metal chelate purification); made in house; host or cells: Sf9 insect cells (baculovirus)
Sequence (O00408 whole entry): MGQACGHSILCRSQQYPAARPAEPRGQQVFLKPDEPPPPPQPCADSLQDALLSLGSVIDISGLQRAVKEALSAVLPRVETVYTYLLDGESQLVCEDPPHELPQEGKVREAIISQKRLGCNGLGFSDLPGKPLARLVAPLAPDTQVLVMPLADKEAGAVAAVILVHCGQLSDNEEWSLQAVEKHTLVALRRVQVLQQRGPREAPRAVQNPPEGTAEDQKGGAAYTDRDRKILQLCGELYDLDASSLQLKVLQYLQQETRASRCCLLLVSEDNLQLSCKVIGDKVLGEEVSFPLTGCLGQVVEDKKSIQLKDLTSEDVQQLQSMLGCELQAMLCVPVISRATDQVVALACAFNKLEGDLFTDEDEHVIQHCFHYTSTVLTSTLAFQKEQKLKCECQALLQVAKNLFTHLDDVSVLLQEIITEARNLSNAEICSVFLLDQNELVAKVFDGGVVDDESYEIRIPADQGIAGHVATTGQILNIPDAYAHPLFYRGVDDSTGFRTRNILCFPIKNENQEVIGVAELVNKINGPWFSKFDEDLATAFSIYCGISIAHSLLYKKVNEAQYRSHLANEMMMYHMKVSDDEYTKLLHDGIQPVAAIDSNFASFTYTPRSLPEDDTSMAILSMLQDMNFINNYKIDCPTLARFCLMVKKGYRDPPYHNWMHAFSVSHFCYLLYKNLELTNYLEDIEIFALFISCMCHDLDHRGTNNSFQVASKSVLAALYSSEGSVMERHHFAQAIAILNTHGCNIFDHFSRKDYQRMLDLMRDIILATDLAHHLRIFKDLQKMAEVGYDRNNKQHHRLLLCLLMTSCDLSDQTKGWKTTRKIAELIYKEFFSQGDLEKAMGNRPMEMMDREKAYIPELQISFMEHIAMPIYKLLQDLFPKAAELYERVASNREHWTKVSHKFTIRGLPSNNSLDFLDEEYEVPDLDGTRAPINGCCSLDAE
Assay: In vitro assay PDE2A (SPA, 3H-cGMP hydrolysis)
Assay type: biochemical
Details: read-out: hPDE2A Emax
Measured endpoint: Emax (%)
Please give a number only; it is taken to be in %.

Some compounds with known Emax results, for comparison:
{"columns": ["Compound", "Experimental target", "Assay value"],
 "data": [
  ["C[C@@H]1CCN(C(=O)c2cnc(N(C)C)nc2)C[C@H]1c1cc(C(F)F)nc2ncnn12 [Compound 174]", "Human recombinant PDE2A (hPDE2A) (Homo sapiens)", 99],
  ["Cc1c(C(=O)N2CC[C@@H](C)[C@H](c3cc(C(F)F)nc4ncnn34)C2)sc2ccccc12 [Compound 119]", "Human recombinant PDE2A (hPDE2A) (Homo sapiens)", 100],
  ["Cc1cc([C@@H]2CN(C(=O)c3nc4ccccc4o3)CC[C@H]2C)n2ncnc2n1 [Compound 21]", "Human recombinant PDE2A (hPDE2A) (Homo sapiens)", 99],
  ["COc1cc(C(=O)N2CC[C@@H](C)[C@H](c3cc(C(F)F)nc4ncnn34)C2)c(C)cn1 [Compound 53]", "Human recombinant PDE2A (hPDE2A) (Homo sapiens)", 100],
  ["COc1cc(C(=O)N2CC[C@@H](C)[C@H](c3cc(C(F)F)nc4ncnn34)C2)cc(C)n1 [Compound 110]", "Human recombinant PDE2A (hPDE2A) (Homo sapiens)", 100],
  ["C[C@@H]1CCN(C(=O)c2ccncn2)C[C@H]1c1cc(C(F)F)nc2ncnn12 [Compound 256]", "Human recombinant PDE2A (hPDE2A) (Homo sapiens)", 97],
  ["C[C@@H]1CCN(C(=O)c2cncn2C)C[C@H]1c1cc(C(F)F)nc2ncnn12 [Compound 164]", "Human recombinant PDE2A (hPDE2A) (Homo sapiens)", 100],
  ["C[C@@H]1CCN(C(=O)c2ccc(OC(F)F)c(F)c2)C[C@H]1c1cc(C(F)F)nc2ncnn12 [Compound 192]", "Human recombinant PDE2A (hPDE2A) (Homo sapiens)", 99],
  ["Cc1cc(C(=O)N2CC[C@@H](C)[C@H](c3cc(C)nc4ncnn34)C2)cc(C)n1 [Compound 1a]", "Human recombinant PDE2A (hPDE2A) (Homo sapiens)", 100],
  ["C[C@@H]1CCN(C(=O)c2ccc3cnccc3c2)C[C@H]1c1cc(C(F)F)nc2ncnn12 [Compound 326]", "Human recombinant PDE2A (hPDE2A) (Homo sapiens)", 100]
]}

Quick one: Emax for COc1cc(C(=O)N2CC[C@@H](C)[C@H](c3cc(C(F)F)nc4ncnn34)C2)cc(Cl)n1 [Compound 108] ?
100

# iterate: COc1cc(C(=O)N2[C@H]3CC[C@H](c4cc(C(F)F)nc5ncnn45)[C@@H]2CC3)cc(C)n1 [Compound 290]
98

----------
Target: Human recombinant PDE2A (hPDE2A) (Homo sapiens)
Construct: His tag (inferred from metal chelate purification); made in house; host or cells: Sf9 insect cells (baculovirus)
Test: In vitro assay PDE2A (SPA, 3H-cGMP hydrolysis)
Format: biochemical
Settings: human recombinant PDE2A; read-out: hPDE2A Emax
Measured endpoint: Emax (%)
The reply should be a number in %, with the unit left off.

Solved entries:
{"columns": ["Molecule", "Experimental target", "Reading unit", "Emax"],
 "data": [
  ["C[C@@H]1CCN(C(=O)c2cccc(OC(F)(F)F)c2F)C[C@H]1c1cc(C(F)F)nc2ncnn12 [Compound 241]", "Human recombinant PDE2A (hPDE2A) (Homo sapiens)", "%", 97],
  ["C[C@@H]1CCN(C(=O)c2ccc3cc[nH]c3c2)C[C@H]1c1cc(C(F)F)nc2ncnn12 [Compound 106]", "Human recombinant PDE2A (hPDE2A) (Homo sapiens)", "%", 100]
]}

# input for lookup
Tell me the measured Emax of COc1c(F)cc(C(=O)N2CC[C@@H](C)[C@H](c3cc(C(F)F)nc4ncnn34)C2)cc1F [Compound 128] , please.
100
